self-cleavage values for the variants below.
B1: LINE1-mini (parent)
chain: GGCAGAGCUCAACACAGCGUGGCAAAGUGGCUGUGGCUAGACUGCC

variants of: B1; assay: self-cleavage, relative activity (ratio to wild type); higher = more cleavage; in vitro, sequencing; the parent is a self-cleaving ribozyme

mutant-designation: G19U U43G
self-cleavage: 0.02
//
mutant-designation: G19A U43A
self-cleavage: 0.15
//
mutant-designation: C10A G36U
self-cleavage: 0.04
//
mutant-designation: U20G G35C
self-cleavage: 0.11
//
mutant-designation: C8U C23U
self-cleavage: 0.25
//
mutant-designation: A14C G36C
self-cleavage: 0.02
//
mutant-designation: C3U G7A
self-cleavage: 0.26
//
mutant-designation: A6C U32G
self-cleavage: 0.05
//
mutant-designation: G5U A41C
self-cleavage: 0.07
//
mutant-designation: A6U C15U
self-cleavage: 0.92
//
mutant-designation: A25G C31G
self-cleavage: 0.27
